Target: Tyrosine-protein kinase BTK (Homo sapiens, UniProt Q06187)
Sequence (Q06187 whole entry): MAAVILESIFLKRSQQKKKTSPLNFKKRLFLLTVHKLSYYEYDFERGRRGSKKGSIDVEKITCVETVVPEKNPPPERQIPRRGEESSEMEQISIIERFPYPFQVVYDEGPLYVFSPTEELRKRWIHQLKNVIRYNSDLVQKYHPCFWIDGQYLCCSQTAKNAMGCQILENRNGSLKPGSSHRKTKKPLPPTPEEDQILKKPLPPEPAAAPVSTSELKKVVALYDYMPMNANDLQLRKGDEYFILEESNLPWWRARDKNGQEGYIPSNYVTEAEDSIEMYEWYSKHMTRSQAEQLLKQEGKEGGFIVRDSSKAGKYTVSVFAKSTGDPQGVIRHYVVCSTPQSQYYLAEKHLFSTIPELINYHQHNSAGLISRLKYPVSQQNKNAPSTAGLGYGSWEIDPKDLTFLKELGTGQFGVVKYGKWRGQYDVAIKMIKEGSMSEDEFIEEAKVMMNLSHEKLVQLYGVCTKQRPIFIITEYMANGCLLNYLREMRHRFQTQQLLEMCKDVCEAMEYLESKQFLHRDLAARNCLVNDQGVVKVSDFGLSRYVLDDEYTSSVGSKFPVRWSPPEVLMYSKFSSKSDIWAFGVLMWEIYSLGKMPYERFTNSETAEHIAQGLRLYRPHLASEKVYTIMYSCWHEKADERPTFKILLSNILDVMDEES
pIC50: −log10 of the molar value.

Compound: CC#CC(=O)N1CC(C2CCNn3c2nc(-c2ccc(Oc4ccccc4)cc2)c3C(N)=O)C1 (stereo unspecified) [US12552798, Example 19]
pIC50: 6.64
